B1: tRNA (parent)
chain: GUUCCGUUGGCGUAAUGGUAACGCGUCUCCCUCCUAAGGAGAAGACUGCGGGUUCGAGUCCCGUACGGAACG

- Variants of: B1
- assay-notes: yeast fitness relative to wild type (ratio to wild type); higher = fitter; tRNA-Arg(CCU), competitive growth, 37 C, YPD
Variants at the floor of the assay were thinned out.
Reported yeast fitness is given for each of the following variants.
measured-attribute: yeast fitness

sequence_variant="C33G A45C G50C" result="≤ 0.5"
sequence_variant="C31U U47G A65U" result="≤ 0.5"
sequence_variant="C5U G41C" result=0.91
sequence_variant="C30G C34G" result="≤ 0.5"
sequence_variant="C5U A20U" result=0.94
sequence_variant="C29A A37G C60A C66U" result="≤ 0.5"
sequence_variant="C5G C33A A42G A57G" result="≤ 0.5"
sequence_variant="U26C A42G G67U" result=0.647
sequence_variant="U3A C22U C24A C27U A43C" result=0.522
sequence_variant="U3C G58A" result=0.922
sequence_variant="G38C G50A G52A C55U" result="≤ 0.5"
sequence_variant="G10A C27U A40C U47A G48C" result=0.585
sequence_variant="G6A G39C G63A" result="≤ 0.5"
sequence_variant="U28A C30U A37C G41C" result=0.542
sequence_variant="U7G C34A" result=0.757
sequence_variant="C4G G9A C27U C46G G48A C62G G68C" result="≤ 0.5"
sequence_variant="A36C U54A" result="≤ 0.5"
sequence_variant="C22A C31G U35C" result="≤ 0.5"
sequence_variant="G6C U7A C29A G51C" result="≤ 0.5"
sequence_variant="C5A G25C C66G" result="≤ 0.5"
sequence_variant="U16C C34A A37G" result="≤ 0.5"
sequence_variant="C11G C31U G41C" result="≤ 0.5"
